These measurements were taken from ChEMBL document CHEMBL1201862.

# Tested on: UACC-257
# Protocol Details: NCI tumour cell line growth inhibition, 48 h
Activity calls are given as the source filed them. Cut-off read from the data, not from the text of the source: active = GI50 up to about 1.1 µM and inactive = higher.
Quick reference for GI50 among some compounds
Measured Quantity: GI50

[[record]]
compound = "C/C(=N\\NC(=S)N1CCN(c2ccccn2)CC1)c1ccccn1"
meas_value = "0.00135 µM (active)"

[[record]]
compound = "Nc1nc2ccc(Sc3ccc4nc(N)[nH]c(=O)c4c3)cc2c(=O)[nH]1"
meas_value = "> 100 µM (inactive)"

[[record]]
compound = "CSc1ccc2c(cc1=O)C(NC(=O)c1ccc(OC(C)=O)cc1)CCc1cc(O)c(O)c(O)c1-2 (stereo not given)"
meas_value = "19.5 µM (inactive)"

[[record]]
compound = "CC(=O)C(C)(C)CCC(C)(C)C(C)=O"
meas_value = "> 100 µM (inactive)"

[[record]]
compound = "COc1ccc(/C=c2\\c(=O)[nH]c3nc4ccccc4c(=O)n23)cc1"
meas_value = "88.9 µM (inactive)"

[[record]]
compound = "Cc1ccccc1N(CCC#N)C1=NN(C(=O)CC(=O)Nc2ccc(Cl)cc2)C(c2ccccc2)C1 (stereo not given)"
meas_value = "> 100 µM (inactive)"

[[record]]
compound = "Cc1ccc(/N=C2\\C(=N/c3ccc(C)cc3)N(c3ccc(C)cc3)C(=S)N2C(=O)c2ccccc2)cc1"
meas_value = "> 10 µM (inactive)"

[[record]]
compound = "C=CCOCn1cnc2c(N)ncnc21"
meas_value = "> 100 µM (inactive)"

[[record]]
compound = "O=C1N/C(=N/N=C/c2c[nH]c3ccccc23)N/C1=C\\c1c[nH]c2ccccc12"
meas_value = "28.5 µM (inactive)"

[[record]]
compound = "C=CC1=CC(C)C[C@]1(O)C(=O)OC (stereo not given in full)"
meas_value = "< 0.01 µM (active)"

